- Test system: NCI-H2228
- procedureDetails: Antiproliferative activity against human NCI-H2228 cells harboring ALK after 72 hrs by MTS assay
- Type: functional, cell-based
- conditionsUsed: NCI-H2228, 72 h
pIC50: −log10 of the molar value.
quantity: pIC50

> print(dat)
                            molecularstring  quantity  measured
1  Cc1[nH]c(/C=C2\C(=O)Nc3ccc(F)cc32)c(C)c1NC(=O)[C@H]1CCCN1.Cl     pIC50      5.46

###

- studyTarget: Cytochrome P450 2C19 (Homo sapiens)
- Sequence (P33261 whole entry): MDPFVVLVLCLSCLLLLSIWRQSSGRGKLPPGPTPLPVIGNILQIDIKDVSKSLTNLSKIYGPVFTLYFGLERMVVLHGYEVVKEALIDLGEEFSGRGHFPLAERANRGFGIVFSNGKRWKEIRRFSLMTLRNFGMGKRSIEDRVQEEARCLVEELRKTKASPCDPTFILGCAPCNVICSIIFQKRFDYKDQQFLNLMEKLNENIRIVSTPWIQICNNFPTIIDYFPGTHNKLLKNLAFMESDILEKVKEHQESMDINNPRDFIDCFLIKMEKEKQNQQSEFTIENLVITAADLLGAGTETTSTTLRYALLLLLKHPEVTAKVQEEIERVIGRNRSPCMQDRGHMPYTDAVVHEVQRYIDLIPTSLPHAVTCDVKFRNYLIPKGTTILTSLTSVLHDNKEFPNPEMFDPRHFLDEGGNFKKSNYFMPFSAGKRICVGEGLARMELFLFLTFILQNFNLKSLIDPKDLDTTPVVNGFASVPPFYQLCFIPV
quantity: IC50

> print(dat)
                            molecularstring  measured
1  Cc1[nH]c(/C=C2\C(=O)Nc3ccc(F)cc32)c(C)c1NC(=O)[C@H]1CCCN1.Cl   > 33 µM
